Origin of the recorded values: patent US12435061B2

# measured_target: hTRPV3 (Homo sapiens (Human))
# Sequence (Q8NET8 whole entry): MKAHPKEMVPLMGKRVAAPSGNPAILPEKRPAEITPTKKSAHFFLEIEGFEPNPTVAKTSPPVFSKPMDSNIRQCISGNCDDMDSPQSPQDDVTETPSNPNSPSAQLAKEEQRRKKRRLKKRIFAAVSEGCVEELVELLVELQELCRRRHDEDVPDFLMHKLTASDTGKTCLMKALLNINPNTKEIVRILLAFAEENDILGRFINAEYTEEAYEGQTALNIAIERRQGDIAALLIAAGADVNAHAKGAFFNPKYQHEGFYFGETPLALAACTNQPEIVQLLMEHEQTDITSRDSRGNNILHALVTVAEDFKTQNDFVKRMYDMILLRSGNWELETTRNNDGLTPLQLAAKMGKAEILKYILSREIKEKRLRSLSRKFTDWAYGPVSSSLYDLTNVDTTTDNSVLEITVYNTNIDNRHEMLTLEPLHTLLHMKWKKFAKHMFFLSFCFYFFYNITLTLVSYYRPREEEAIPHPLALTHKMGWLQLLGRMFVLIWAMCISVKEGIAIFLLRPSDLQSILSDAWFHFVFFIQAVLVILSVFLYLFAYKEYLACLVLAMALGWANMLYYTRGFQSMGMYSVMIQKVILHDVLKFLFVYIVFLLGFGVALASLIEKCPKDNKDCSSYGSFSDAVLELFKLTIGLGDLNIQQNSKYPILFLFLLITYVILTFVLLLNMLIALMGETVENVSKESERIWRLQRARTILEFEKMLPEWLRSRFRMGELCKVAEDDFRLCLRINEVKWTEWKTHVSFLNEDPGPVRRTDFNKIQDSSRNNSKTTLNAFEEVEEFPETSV
# method_notes: Whole-cell patch clamp, hTRPV3 Phase 1 / Phase 2 currents
# Assay type: cell-based
# setup_conditions: Phase 1 current, human TRPV3; read-out: hTRPV3 (nM) Phase 1
The compounds listed here are annotated with their IC50.
Write the answer as a number in nM, unit excluded.

CCc1ccccc1-c1ccc(C2CCN(C(=O)c3ncccc3Cl)C2)c(CO)c1 (stereo not shown) | 67.3
COC(=O)c1cc(-c2ccccc2C(C)C)ccc1C1CCN(C(=O)c2ccc(F)cn2)C1 (stereo not shown) | 886
O=C(c1cnccn1)N1CCC(c2ccc(-c3ccccc3C3CC3)cc2CO)C1 (stereo not shown) | 61.2
O=C(c1ccc(F)cn1)N1CCC(c2ccc(-c3ccccc3)nc2CO)C1 (stereo not shown) | 163
CCOc1ccccc1-c1ccc(C2CCN(C(=O)c3ccc(Cl)cn3)C2)c(CO)c1 (stereo not shown) | 25.3

Ask: Given the compound Cc1cccc(C(=O)N2CCC(c3ccc(Oc4ccccc4C(C)C)cc3CO)C2)n1 (stereo not shown) , write its reported IC50.
Result: 191

Ask: Indicate its recorded IC50; the compound in question is O=C(c1cocn1)N1CCC(c2ccc(-c3ccccc3C3CC3)cc2CO)C1 (stereo not shown)
Result: 61.2

Ask: Report IC50 for CCc1ccccc1-c1ccc(C2CCN(C(=O)c3ccccn3)C2)c(CO)c1 (stereo not shown)
Result: 73

Ask: Please give measured IC50 of the following entry: CC(C)c1ccccc1Oc1ccc(C2CCN(Cc3ccccn3)C2)c(CO)c1 (stereo not shown)
Result: 699

Ask: Return value of IC50 for input O=C(c1ncccc1Cl)N1CCC(c2ccc(Oc3ccccc3)cc2CO)C1 (stereo not shown) , no commentary.
Result: 3310

Ask: Specify IC50 for CC(O)c1cc(F)ccc1-c1ccc(C2CCN(C(=O)c3ccc(F)cn3)C2)c(CO)c1 (stereo not shown) and stop.
Result: 2330

Ask: # return recorded IC50 for input O=C(c1ccncn1)N1CCC(c2ccc(-c3ccccc3C3CC3)cc2CO)C1 (stereo not shown)
Result: 197

Ask: Give me measured IC50, please, for this compound: O=C(c1cscn1)N1CCC(c2ccc(-c3ccccc3C3CC3)cc2CO)C1 (stereo not shown)
Result: 194
